system: human JAK2 (a.a. 828-1132) (Homo sapiens, UniProt O60674)
Construct: JAK2 (a.a. 828-1132); His tag (N); made in house; host or cells: insect cells (baculovirus)
Sequence (O60674 828-1132): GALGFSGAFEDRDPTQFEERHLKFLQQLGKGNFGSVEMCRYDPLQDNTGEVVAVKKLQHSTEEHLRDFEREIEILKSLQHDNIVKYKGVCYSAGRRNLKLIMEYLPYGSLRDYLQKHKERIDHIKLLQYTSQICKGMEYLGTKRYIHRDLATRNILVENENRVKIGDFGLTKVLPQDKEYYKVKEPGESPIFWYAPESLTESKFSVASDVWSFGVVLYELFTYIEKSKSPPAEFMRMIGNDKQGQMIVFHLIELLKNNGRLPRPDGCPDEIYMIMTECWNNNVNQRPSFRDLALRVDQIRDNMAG
experimental_protocol: In vitro JAK kinase assay (HTRF, phosphorylation of a biotinylated peptide), JAK2
Type: biochemical
condition_description: method AA1 (30 μM ATP) or AA2 (1000 μM ATP), not stated per value
Structures can show the parent of a compound that is named as a salt.
Measured pIC50, listed per entry for reference.
Notebook: values listed as pIC50 are -log10 of the concentration (mol/L).

Some entries whose results are on file:
molecule	pIC50
O=C(CC1CCN(C(=O)c2cnccn2)CC1)Nc1ccc2cc1CCc1cccc(c1)Nc1ncc(Cl)c(n1)N2 [Example A87, bis(trifluoroacetate)]	8.01
c1cc2cc(c1)Nc1ccnc(n1)Nc1cccc(c1)CC2 [Example A3, trifluoroacetate]	7.82
N#Cc1ccc(C(=O)N2CCC(CC(=O)Nc3ccc4cc3CCc3cccc(c3)Nc3ncc(Cl)c(n3)N4)CC2)cc1 [Example A186, trifluoroacetate]	6.73
N#Cc1c(N2CCC(CC(=O)Nc3ccc4cc3CCc3cncc(c3)Nc3ncc(Cl)c(n3)N4)CC2)cccc1C(F)(F)F [Example A235, tris(trifluoroacetate)]	6.49
CCNC(=O)N1CCCC(C(=O)Nc2ccc3cc2CCc2cccc(c2)Nc2ncc(Cl)c(n2)N3)C1 (stereo not drawn) [Example A49, trifluoroacetate]	8.12

Turning to the following molecule.
## Task Quick check: pIC50 of O=C(CC1CCNCC1)Nc1ccc2cc1CCc1cccc(c1)Nc1ncc(Cl)c(n1)N2 [Example A46, bis(trifluoroacetate)] ?
## Result 7.80

----------
Measured IC50, listed per entry for reference.
system: TYK2 (Homo sapiens, UniProt P29597)
Sequence (P29597 whole entry): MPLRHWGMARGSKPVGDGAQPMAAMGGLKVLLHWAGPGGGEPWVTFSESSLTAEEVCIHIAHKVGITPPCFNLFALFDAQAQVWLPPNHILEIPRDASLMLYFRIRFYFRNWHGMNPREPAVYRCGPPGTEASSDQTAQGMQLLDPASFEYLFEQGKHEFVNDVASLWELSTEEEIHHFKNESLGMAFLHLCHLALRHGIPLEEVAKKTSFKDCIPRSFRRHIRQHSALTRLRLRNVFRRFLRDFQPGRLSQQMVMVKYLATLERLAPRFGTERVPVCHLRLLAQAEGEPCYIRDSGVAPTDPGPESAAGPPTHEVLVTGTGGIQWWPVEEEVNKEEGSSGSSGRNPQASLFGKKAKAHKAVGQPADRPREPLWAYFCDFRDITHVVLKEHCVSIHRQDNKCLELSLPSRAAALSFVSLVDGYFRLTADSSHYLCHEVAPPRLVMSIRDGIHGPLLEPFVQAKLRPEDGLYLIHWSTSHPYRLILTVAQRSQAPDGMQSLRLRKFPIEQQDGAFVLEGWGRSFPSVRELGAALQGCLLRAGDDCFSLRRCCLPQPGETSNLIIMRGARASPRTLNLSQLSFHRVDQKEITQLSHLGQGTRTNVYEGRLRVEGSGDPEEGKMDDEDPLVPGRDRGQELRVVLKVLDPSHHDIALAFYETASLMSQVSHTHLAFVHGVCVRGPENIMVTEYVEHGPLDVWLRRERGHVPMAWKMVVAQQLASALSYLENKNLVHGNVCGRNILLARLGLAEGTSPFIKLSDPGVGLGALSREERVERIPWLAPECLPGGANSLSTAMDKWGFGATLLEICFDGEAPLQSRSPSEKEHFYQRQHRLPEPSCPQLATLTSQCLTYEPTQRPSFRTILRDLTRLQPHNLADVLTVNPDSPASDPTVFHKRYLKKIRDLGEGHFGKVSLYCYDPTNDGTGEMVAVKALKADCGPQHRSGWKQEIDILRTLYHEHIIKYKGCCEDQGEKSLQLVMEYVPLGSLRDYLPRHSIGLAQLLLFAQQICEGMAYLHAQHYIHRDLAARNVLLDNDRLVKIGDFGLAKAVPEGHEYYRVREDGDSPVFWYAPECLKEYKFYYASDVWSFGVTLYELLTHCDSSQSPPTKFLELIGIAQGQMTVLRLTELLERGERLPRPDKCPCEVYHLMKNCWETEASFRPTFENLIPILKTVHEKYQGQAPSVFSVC
experimental_protocol: TYK2 kinase inhibition (Table A1)
Format: biochemical
condition_description: Table D1
Structures can show the parent of a compound that is named as a salt.
Reply numerically in nM, unit not repeated.

compound	system	numeric_value
NC(=O)N1CCN(c2cc(-c3cc4cc(c3)Nc3ncc(Cl)c(n3)Nc3cccc(c3)OCC4)ccn2)CC1 [Example D39, bis(trifluoroacetate)]	TYK2 (Homo sapiens, UniProt P29597)	1.8

## Task Quick check: IC50 of O=C(CC1CN(c2nc3cccnc3o2)C1)Nc1ccc2cc1CCc1cncc(c1)Nc1ncc(Cl)c(n1)N2 [Example D141, tris(trifluoroacetate)] ?
## Result 262

## Task Okay, and Clc1cnc2nc1Nc1cccc(c1)COCc1cccc(c1)N2 [Example D21, trifluoroacetate] ?
## Result 27

----------
system: TYK2 (Homo sapiens, UniProt P29597)
experimental_protocol: TYK2 kinase inhibition (Table A1)
Type: biochemical
condition_description: Table D1
Counter-ions that a name gives are not always drawn.
Threshold 10 nM. IC50 below it: T. IC50 at it or above: F.

# count of solved cases: 5
compound	label_value
O=C(Nc1ccccc1)N1CCN(c2ccc(-c3cc4cc(c3)Nc3ncc(Cl)c(n3)Nc3cccc(c3)OCC4)cn2)CC1 [Example D42, bis(trifluoroacetate)]	T
O=S1(=O)CCOc2cccc(c2)Nc2ncc(Cl)c(n2)Nc2cccc1c2 [Example D14, trifluoroacetate]	T
Clc1cnc2nc1Nc1cccc(c1)CSCc1cccc(c1)N2 [Example D20, trifluoroacetate]	F
O=C(C[C@@H]1CCCN(C(=O)c2ccccc2)C1)Nc1ccc2cc1CCc1cncc(c1)Nc1ncc(Cl)c(n1)N2 [Example D206, bis(trifluoroacetate)]	F
O=C(CC1CCN(c2nccs2)C1)Nc1ccc2cc1CCc1cncc(c1)Nc1ncc(Cl)c(n1)N2 (stereo not shown) [Example D154, tris(trifluoroacetate)]	F

## Task Could you please tell me whether IC50 recorded for N#Cc1ccccc1S(=O)(=O)N1CCN(C(=O)COc2ccc3cc2CCc2cncc(c2)Nc2ncc(Cl)c(n2)N3)CC1 [Example D254, bis(trifluoroacetate)] is less than 10 nM?
## Result F

## Task Okay, and Clc1cnc2nc1Nc1cccc(c1)NCCOc1cccc(c1)N2 [Example D72, bis(trifluoroacetate)] ?
## Result T

## Task Okay, and CN1CCN(Cc2cc3cc(c2)Nc2ncc(Cl)c(n2)Nc2cccc(c2)OCC3)CC1 [Example D190, tris(trifluoroacetate)] ?
## Result T

----------
system: human JAK3 (a.a. 781-1124) (Homo sapiens, UniProt P52333)
Construct: JAK3 (a.a. 781-1124); His tag (N); made in house; host or cells: insect cells (baculovirus)
Sequence (P52333 781-1124): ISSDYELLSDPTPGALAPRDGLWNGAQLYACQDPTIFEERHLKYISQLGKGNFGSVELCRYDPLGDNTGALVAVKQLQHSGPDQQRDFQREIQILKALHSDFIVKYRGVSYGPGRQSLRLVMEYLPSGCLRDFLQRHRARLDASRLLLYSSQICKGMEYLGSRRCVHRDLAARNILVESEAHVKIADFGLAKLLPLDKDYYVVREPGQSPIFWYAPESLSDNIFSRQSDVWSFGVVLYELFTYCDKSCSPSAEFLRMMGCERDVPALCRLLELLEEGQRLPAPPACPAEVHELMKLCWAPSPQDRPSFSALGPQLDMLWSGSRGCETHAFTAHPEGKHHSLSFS
experimental_protocol: In vitro JAK kinase assay (HTRF, phosphorylation of a biotinylated peptide), JAK3
Type: biochemical
condition_description: method AA1 (3 μM ATP) or AA2 (1000 μM ATP), not stated per value
Structures can show the parent of a compound that is named as a salt.
Measured pIC50, listed per entry for reference.
Notebook: values listed as pIC50 are -log10 of the concentration (mol/L).

molecule	pIC50
O=C(CCNC(=O)Nc1ccccc1)Nc1ccc2cc1CCc1cccc(c1)Nc1ncc(Cl)c(n1)N2 [Example A67, trifluoroacetate]	8.11
CC(=O)N1CCC(C(=O)Nc2ccc3cc2CCc2cccc(c2)Nc2ncc(Cl)c(n2)N3)CC1 [Example A29, trifluoroacetate]	7.51

## Task Quick check: pIC50 of Cn1cncc1C(=O)N1CCC(CC(=O)Nc2ccc3cc2CCc2cncc(c2)Nc2ncc(Cl)c(n2)N3)CC1 [Example A134, bis(trifluoroacetate)] ?
## Result 6.65

----------
system: human JAK3 (a.a. 781-1124) (Homo sapiens, UniProt P52333)
Construct: JAK3 (a.a. 781-1124); His tag (N); made in house; host or cells: insect cells (baculovirus)
experimental_protocol: In vitro JAK kinase assay (HTRF, phosphorylation of a biotinylated peptide), JAK3
Assay type: biochemical
condition_description: method AA1 (3 μM ATP) or AA2 (1000 μM ATP), not stated per value
Where a name gives a salt, the structure may show the parent alone.
Measured pIC50, listed per entry for reference.
Notebook: values listed as pIC50 are -log10 of the concentration (mol/L).

compound	numeric_value
O=C(Nc1ccc2cc1CCc1cccc(c1)Nc1ncc(Cl)c(n1)N2)C1CCN(C(=O)c2ccccc2)CC1 [Example A30, trifluoroacetate]	6.96
Cc1cc(C(=O)N2CCN(CC(=O)Nc3ccc4cc3CCc3cncc(c3)Nc3ncc(Cl)c(n3)N4)CC2)no1 [Example A119, tris(trifluoroacetate)]	6.76
O=C(Nc1ccc2cc1CCc1cccc(c1)Nc1ncc(Cl)c(n1)N2)C1CCN(C(=O)c2ccc3c(c2)OCO3)CC1 [Example A31, trifluoroacetate]	6.97

## Task Quick check: pIC50 of CC(=O)N1CCN(C(=O)COc2ccc3cc2CCc2cccc(c2)Nc2ncc(Cl)c(n2)N3)CC1 [Example A20, trifluoroacetate] ?
## Result 7.11

## Task Okay, and `O=C(CCC1CCNCC1)Nc1ccc2cc1CCc1cncc(c1)Nc1ncc(Cl)c(n1)N2` ?
## Result 6.80

## Task Okay, and O=C(Nc1ccc2cc1CCc1cccc(c1)Nc1ncc(Cl)c(n1)N2)C1CCNCC1 [Example A28, bis(trifluoroacetate)] ?
## Result 7.00

## Task Okay, and CCC(=O)N1CCC(CC(=O)Nc2ccc3cc2CCc2cncc(c2)Nc2ncc(Cl)c(n2)N3)CC1 [Example A104, bis(trifluoroacetate)] ?
## Result 6.83

## Task Okay, and CCNC(=O)N1CCN(C(=O)COc2ccc3cc2CCc2cccc(c2)Nc2ncc(Cl)c(n2)N3)CC1 [Example A12, trifluoroacetate] ?
## Result 7.19

## Task Okay, and O=C(Nc1ccc2cc1CCc1cccc(c1)Nc1ncc(Cl)c(n1)N2)[C@@H]1CCN(C(=O)NC2CCCC2)C1 [Example A63, trifluoroacetate] ?
## Result 8.59

## Task Okay, and CC(=O)N1CCCC(C(=O)Nc2ccc3cc2CCc2cccc(c2)Nc2ncc(Cl)c(n2)N3)C1 (stereo not shown) [Example A47, trifluoroacetate] ?
## Result 7.60

----------
system: TYK2 (Homo sapiens)
experimental_protocol: TYK2 kinase inhibition (Table A1)
Type: biochemical
condition_description: Table D1
Where a name gives a salt, the structure may show the parent alone.
property_name: pIC50
Notebook: values listed as pIC50 are -log10 of the concentration (mol/L).

compound	pIC50
Clc1cnc2nc1Nc1cccc(c1)OCCc1cccc(c1)N2 [Example D8, trifluoroacetate]	7.72
O=C(c1ccc(F)cc1F)N1CCC(CCNc2ccc3cc2CCc2cncc(c2)Nc2ncc(Cl)c(n2)N3)CC1 [Example D220, tris(trifluoroacetate)]	7.42
O=C(Nc1cc2cc(c1)OCCSc1cccc(c1)Nc1nc(ncc1Cl)N2)c1ccccc1 [Example D57, trifluoroacetate]	8.13

## Task Quick check: pIC50 of CS(=O)(=O)c1ccc(-c2cc3cc(c2)Nc2ncc(Cl)c(n2)Nc2cccc(c2)OCC3)cc1 [Example D29, trifluoroacetate] ?
## Result 8.47

----------
system: TYK2 (Homo sapiens)
experimental_protocol: TYK2 kinase inhibition (Table A1)
Format: biochemical
condition_description: Table B1
Counter-ions that a name gives are not always drawn.
Measured pIC50, listed per entry for reference.
Notebook: values listed as pIC50 are -log10 of the concentration (mol/L).

## Task Quick check: pIC50 of Cc1cccc(C(=O)Nc2ccc3cc2CCc2cccc(c2)Nc2ncc(Cl)c(n2)N3)c1 [Example B46, trifluoroacetate] ?
## Result 8.44

## Task Okay, and O=C(Nc1ccc2cc1CCc1cccc(c1)Nc1ncc(Cl)c(n1)N2)c1ccc(Cl)cc1 [Example B43, hydrochloride] ?
## Result 8.54

Source of measurements: patent US8871753B2
